All figures here come from PubChem BioAssay (NCI).

# Tested on: KM12 colon
# Assay name: NCI tumour cell line growth inhibition, 48 h
Would you kindly list TGI for each of these compounds?

## Input What value of TGI has been reported for the following compound? `COC(=O)/C=C\C(C#N)(C#N)N=Cc1ccc(Br)cc1`
## Output 29.3 µM

## Input Would you kindly repeat that for `Cc1nccn1S(=O)(=O)c1ccc(Cl)cc1` ?
## Output > 100 µM

## Input Further, for `CC(C)=CCC[C@@H](C)C1=C(O)C(Nc2ccccc2)=C(C)C(=O)C1=O` ?
## Output > 100 µM

## Input Note, next up: CCCCCCCCCCCCCCCCCCNc1nc(=O)n(C2CC(OP(=O)(O)OCC3OC(n4cc(F)c(=O)[nH]c4=O)CC3O)C(CO)O2)cc1F (stereo not given)
## Output 27.8 µM

## Input Next up: `O=C1C(=Cc2ccc(F)cc2)C(=O)c2ccccc21`
## Output > 100 µM

## Input Then `CC(=O)c1c(O)cc(O)c(-c2c(C)cc(O)c3c2C(=O)c2cccc(O)c2C3=O)c1O` ?
## Output 33.5 µM

## Input Similarly, `CCOC(=O)N(O)c1ccc(/C=C/c2ccccc2)cc1` ?
## Output 36.6 µM

## Input // same read-out, input: `N#CC(C#N)C(c1ccccc1)c1ccccc1`
## Output > 100 µM

## Input What do you have for `Cn1c(-c2c(C3=CC(=O)N(c4ccccc4)C3=O)c3ccccc3n2C)cc2ccccc21` ?
## Output > 100 µM

## Input Same lookup for `CCc1n[nH]c(=O)[nH]1` , please.
## Output > 100 µM

## Input Another compound: `CS(=O)(=O)CCNCc1ccoc1-c1ccc2ncnc(Nc3ccc(OCc4ccccc4)cc3)c2c1`
## Output > 25 µM

## Input What do we get for `O=C(NNc1nc(-c2ccccc2)cs1)Nc1ccccc1` ?
## Output > 100 µM

## Input Follow-up item: `CC(C)(CO)CNc1cc(Cl)nc(N)n1`
## Output > 100 µM

## Input Queued: `O=C1/C(=C/c2ccc(O)cc2)Oc2ccccc21`
## Output > 100 µM

## Input Also, `CCN(CC)CCNc1ccc([N+](=O)[O-])c2nc3ccc(OC)cc3c(N)c12` please.
## Output 2.57 µM

## Input Repeat for the following compound: `N#C/C(=C1\OC(N)=C(c2ccc(Cl)cc2)C1=O)c1ccc(Cl)cc1`
## Output 31.4 µM

## Input Record: `CNC(=O)c1cc(-c2ccc(F)cc2)cc(-c2ccc(S(=O)(=O)N3CCCC3)cc2)c1N`
## Output > 25 µM

## Input Consider next the compound `CCN(CC)C(=O)c1cc([N+](=O)[O-])c(=O)n2c1[nH]c1ccccc12` in the same way.
## Output > 100 µM

## Input Query COC(=O)C(C)Oc1ccc(O)cc1 (stereo not given) next
## Output > 100 µM

## Input Query `C1CC[N-]CC1.CC(=N\O)/C(C)=N/O.CC(=N\O)/C(C)=N/O.C[CH-]C(C)O.[Co+2]` next
## Output > 100 µM

* * *

# Test system: NCI-H522 lung
# Assay name: NCI tumour cell line growth inhibition, 48 h
Endpoint label: TGI

## Input Look up TGI: `CC(C)OP(=O)(OC(C)C)/C(C#N)=C/c1c[nH]c2ccccc12`
## Output > 100 µM

## Input What about this molecule? O=C1CC2OCC=C3CN4CCC5(C(=O)O)C(N1)C2C3CC45 (stereo not drawn)
## Output > 100 µM

## Input // same read-out, input: `CCc1n[nH]c(=O)[nH]1`
## Output > 100 µM

* * *

Please provide measured TGI for the entries that follow.
# Tested on: MOLT-4 leukemia
# Assay name: NCI tumour cell line growth inhibition, 48 h

## Input Any idea what TGI was measured for `COc1ccc(/C=C/C(=O)c2ccc(Nc3nc(Nc4ccc(F)cc4)nc(Nc4ccc(F)cc4)n3)cc2)cc1` ?
## Output 21.9 µM

## Input Now consider `COc1ccc(/C=C2\OC(=O)C(Cl)=C2c2ccc(OC)c(Cl)c2)cc1` .
## Output > 100 µM

## Input Next entry: `CSc1nc2ccc(C)cc2cc1/C=C1/C=C(c2ccccc2)NC1=O`
## Output > 100 µM

## Input Next record, please: `Cn1c2ccccc2c2c3c(c4c5ccccc5n(C)c4c21)C(=O)N(c1ccccc1)C3=O`
## Output > 100 µM

## Input Now the same for `Cn1cccc1-c1cc(-c2ccccc2)nc(N)c1C#N`
## Output > 100 µM

## Input Thanks! And CCOC(=O)CCC(NC(=O)c1ccc(Nc2nc3ccccc3nc2C(=O)OCC)s1)C(=O)OCC (stereo not drawn) ?
## Output > 100 µM

## Input Same again, this time with `Cc1nc2sc(C(=O)Nc3ccccc3)c(N)c2cc1C(=O)c1ccccc1`
## Output > 50 µM

## Input Query `O=C(N/C(=C\c1ccc(F)cc1)c1nc2ccccc2[nH]1)c1ccccc1` next
## Output > 100 µM

## Input `CN1C/C(=C\c2ccc(C(=O)O)cc2)C(=O)/C(=C/c2ccc(C(=O)O)cc2)C1` , same question.
## Output > 100 µM

## Input O=C(O)C1CSC2(CCCN(Cc3ccccc3)C2)N1 (stereo not drawn) , same question.
## Output > 59.9 µM

## Input Next record, please: NC1=C(O)C(=O)C(c2c[nH]c3ccc(OCc4ccccc4)cc23)O1 (stereo not drawn)
## Output > 100 µM

## Input Also check `C=C(CN1CCN(c2ccc(F)c(Cl)c2)CC1)c1ccc(C(=O)Nc2ccccc2N)cc1`
## Output 4 µM

## Input Similarly, O=C1CC2OCC=C3CN4CCC5(C(=O)O)C(N1)C2C3CC45 (stereo not drawn) ?
## Output > 100 µM

* * *

# Test system: HOP-18 NSCLC
# Assay name: NCI tumour cell line growth inhibition, 48 h
Endpoint label: TGI

## Input Please look up its TGI: `O=S(=O)(O)c1cc(N=[N+]([O-])c2ccc(N=Nc3ccccc3)cc2S(=O)(=O)O)ccc1/C=C/c1ccc(N=[N+]([O-])c2ccc(N=Nc3ccccc3)cc2S(=O)(=O)O)cc1S(=O)(=O)O`
## Output > 100 µM

## Input And the next one, `C=CCCC(=O)CC(=O)OCc1ccccc1` ?
## Output > 100 µM

## Input // repeat for `NC(=O)c1nc(-c2ccc(Cl)c(Cl)c2)nc2ccccc12` and report
## Output > 100 µM

## Input Same again, this time with `COc1ccc(/C=C2/CSC/C(=C/c3ccc(OC)c(OC)c3)C2=O)cc1OC`
## Output 17.3 µM

## Input Note, next up: O/N=C1\C(=C\c2ccc3c(c2)OCCO3)CCCC1C(NO)c1ccc2c(c1)OCCO2 (centres undefined)
## Output > 100 µM

## Input Next entry: OC(CCl)CN1CC[N+]2(CC1)CC[N+]1(CCN(CC(O)CCl)CC1)CC2 (centres undefined)
## Output > 50 µM

## Input Next: CC/C(C)=C1\CCC(CN(C)C)C1=O (centres undefined)
## Output 32.2 µM

## Input What would you report for `Nc1ncc2c(n1)-c1ccccc1OC2` ?
## Output > 100 µM

## Input Cool, now `N#CC(C#N)C(c1ccccc1)c1ccccc1`
## Output > 100 µM

* * *

# System: OVCAR-5 ovarian
# Assay name: NCI tumour cell line growth inhibition, 48 h
I'd be grateful if you could share measured TGI for these entries.

## Input Fill in the blank: the reported TGI of `COC(=N)CCCl` is ____.
## Output > 100 µM

## Input Request: `CCOC(=O)N(O)c1ccc(/C=C/c2ccccc2)cc1`
## Output 9.71 µM

## Input Try `O=C1C(=Cc2ccc(F)cc2)C(=O)c2ccccc21` next.
## Output > 100 µM

* * *

For each record, write down the corresponding TGI.
# System: K-562 leukemia
# Assay name: NCI tumour cell line growth inhibition, 48 h

## Input Quick one: TGI of `Cc1nc2sc(C(=O)Nc3ccccc3)c(N)c2cc1C(=O)c1ccccc1` ?
## Output > 50 µM

## Input Okay, and `O=C1C(=Cc2ccc(F)cc2)C(=O)c2ccccc21` ?
## Output > 100 µM

## Input Ok, now `c1ccc(-c2cc3n4c(-c5ccccc5)nn(-c5ccccc5)c4cnc-3n2)cc1`
## Output > 50 µM

## Input Could you do the same for `Cc1ccsc1/C=N/Nc1cc(C)c2ccccc2n1` , please?
## Output 78.4 µM

* * *

# System: A498 renal
# Assay name: NCI tumour cell line growth inhibition, 48 h
Endpoint label: TGI

## Input Tell me reported TGI for `N/C(CC(=O)NOC(=O)c1ccccc1)=N/OC(=O)c1ccccc1` , tested with A498 renal.
## Output > 100 µM

## Input Another compound: `O=C1Nc2ccccc2SC1=C(C(=O)c1ccccc1)C(=O)c1ccccc1`
## Output > 80.3 µM

## Input Entry to check: Nc1ccn(C2CC3OCC3O2)c(=O)n1 (stereo not given)
## Output > 100 µM

## Input Item: `CCCC(=O)OC(OC(=O)CCC)c1ccc([N+](=O)[O-])o1`
## Output > 100 µM

## Input Also, `COC(=O)[C@@H](C)C[C@H](Cc1ccccc1)NC(=O)c1csc([C@@H](C[C@H](C(C)C)N(C)C(=O)[C@@H](NC(=O)[C@H]2CCCCN2C)C(C(F)(F)F)C(F)(F)F)OC(C)=O)n1` please.
## Output > 16.7 µM
